// reported EC80 Wash (2 h) per item
Test system: MARylated Tb-PARP10cat
Type: biochemical, human
# unit: nM | format: bare number

These solved cases illustrate the format of a correct answer.
>>> quantitative_readout("MacroD2: recombinant human MacroD2, Uniprot A1Z1Q3 res. 4-243 (protein, UniProt A1Z1Q3 4-243, looked up, fragment) SNKKKKVWREEKERLLKMTLEERRKEYLRDYIPLNSILSWKEEMKGKGQNDEENTQETSQVKKSLTEKVSLYRGDITLLEVDAIVNAANASLLGGGGVDGCIHRAAGPCLLAECRNLNGCDTGHAKITCGYDLPAKYVIHTVGPIARGHINGSHKEDLANCYKSSLKLVKENNIRSVAFPCISTGIYGFPNEPAAVIALNTIKEWLAKNHHEVDRIIFCVFLEVDFKIYKKKMNEFFSVD")
2
>>> quantitative_readout("HCoV-229e: recombinant HCoV-229E macrodomain, Uniprot P0C6X1 res. E1270-1437 (protein, UniProt P0C6X1 1270-1437, looked up, fragment, Non-structural protein 3 macrodomain) EKLNAFLVHDNVAFYQGDVDTVVNGVDFDFIVNAANENLAHGGGLAKALDVYTKGKLQRLSKEHIGLAGKVKVGTGVMVECDSLRIFNVVGPRKGKHERDLLIKAYNTINNEQGTPLTPILSCGIFGIKLETSLEVLLDVCNTKEVKVFVYTDTEVCKVKDFVSGLVN")
15

Task: Note EC80 Wash (2 h) for the molecule shown: MacroD1: recombinant human MacroD1, Uniprot Q9BQ69 res. 90-325 (protein, UniProt Q9BQ69 90-325, looked up, fragment) STSTDWKEAKSFLKGLSDKQREEHYFCKDFVRLKKIPTWKEMAKGVAVKVEEPRYKKDKQLNEKISLLRSDITKLEVDAIVNAANSSLLGGGGVDGCIHRAAGPLLTDECRTLQSCKTGKAKITGGYRLPAKYVIHTVGPIAYGEPSASQAAELRSCYLSSLDLLLEHRLRSVAFPCISTGVFGYPCEAAAEIVLATLREWLEQHKDKVDRLIICVFLEKDEDIYRSRLPHYFPVA
Result: 3
